The measured values listed here are drawn from patent US11685714B2.

Would you kindly list log10 IC50 for each of these compounds?
Tested on: SK-HEP-1: human liver cell cancer line
Experiment: MTT assay on SK-HEP-1
Format: cell-based
Conditions: SK-HEP1, 96 h, growth inhibition, 96 h incubation
# log10 transformed; quantity=IC50; unit=nM

Examples from the recorded data:
Compound	log10 IC50
CC(C)(C)[C@H](c1cc(-c2cc(F)ccc2F)cn1Cc1ccccc1)N(CCCN)C(=O)CSC[C@H](NC(=O)CCC(=O)O)C(=O)O	1.32
CC(C)(C)[C@H](c1cc(-c2cc(F)ccc2F)cn1Cc1ccccc1)N(CC[C@H](N)C(=O)NCCNC(=O)CCCC(=O)NCCCC[C@H](N)C(=O)O)C(=O)CO	2.32
CC(C)(C)[C@H](c1cc(-c2cc(F)ccc2F)cn1Cc1ccccc1)N(CCCN)C(=O)CSC[C@H](N)C(=O)O	-0.72
CC(C)(C)[C@H](c1cc(-c2cc(F)ccc2F)cn1Cc1ccccc1)N(CC[C@H](N)C(=O)NCCNC(=O)CNC(=O)CC(SC[C@H](N)C(=O)O)C(=O)O)C(=O)CO (single isomer, unassigned) [Example M14]	1.97

Please turn your attention to the following entry.
log10 IC50 value, target or system SK-HEP-1: human liver cell cancer line, for CC(C)(C)[C@H](c1cc(-c2cc(F)ccc2F)cn1Cc1ccccc1)N(CCCN)C(=O)CSC[C@H](NC(=O)CCOCCOCCOCCOCCNC(=O)CNC(=O)CC(SC[C@H](N)C(=O)O)C(=O)O)C(=O)O (some centres unmarked) : 2.26
